Kindly state gcPBM binding intensity (ln) for each of the entries shown.
- Tested on: PfAP2-G AP2 domain (GST-tagged)
- ASSAY COMMENT: gcPBM binding intensity (ln(normalized median fluorescence intensity)); higher = stronger DNA binding
In all, about 25,000 sequences were measured (“ln(normalized median fluorescence intensity)”: median about 10, highest 2% from about 12 on). Shown is part of a subset that was picked to be rich in the highest values.
Numbers only.

Take a look at these entries with their results.
[
  {
    "ITEM SEQUENCE": "TATTCATATTTAAAGGTGCAATATTTATTTTGTACA",
    "gcPBM binding intensity (ln)": 10.2
  },
  {
    "ITEM SEQUENCE": "TTTTTTAAATTTTGAATTATAACTACATTAAAGAAA [GTGCAC_negctrl_site279]",
    "gcPBM binding intensity (ln)": 9.8
  },
  {
    "ITEM SEQUENCE": "ATAACTTTATTTTCCTGTACACACATTTGACATATT [XGTACX_site7192]",
    "gcPBM binding intensity (ln)": 11.4
  },
  {
    "ITEM SEQUENCE": "CGCCCACAGATATATACACACATATATAAATAAATA [CACACA_site6877]",
    "gcPBM binding intensity (ln)": 10.1
  }
]

Provide gcPBM binding intensity (ln) values for the following items, in order.
1. ATACTATAATAATACACACTCATTAGATATATAAAG [CACACA_site7787]
2. GAATAAATAAGATACGTACACACATATACAAAATAT [CACACA_site3660]
3. TTTCTTTTTGTTCGTGTACACACATGAAATTTATAA [CACACA_site8466]
4. ATACACATAACATATATATATATATATATATATATC [CACACA_negctrl_site278]
5. TTTATTTTGATTTAATGTACAAATAGTAAAACAAAA [XGTACX_site4789]
6. TATGCTATTATATATGTACACACCAATTTATTTATA [CACACA_site3918]

Result:
1: 9.99; 2: 11.7; 3: 11.6; 4: 9.73; 5: 10.9; 6: 11.3
